Where do the numbers come from? From a melting point compilation (Tetko et al.; mined from patent text by program, amines drawn as free bases though some values may be those of a salt).

Value type: melting point

Completed entries (count: 5):
Molecule | melting point
CCOC(=O)c1nc[nH]c1F | 153 to 154 °C
CCOC(=O)c1c(C(C)C)nc(-c2ccccc2)c(C(C)C)c1-c1ccc(F)cc1 | 138 to 140 °C
CNC(=S)NCCCSc1nccs1 | 67 to 68 °C
COc1ccc2c(c1)C13CCCOC1(C)C(C2)N(C(=O)C1CCC1)CC3 (stereo not drawn) | 166 to 167 °C
NC(=O)N(O)CCNC(=O)c1cc2c(Cl)cccc2s1 | 181 to 184 °C

## Input Please report the recorded melting point for CC(=O)NCC1CN(c2ccc(N3CCS(=O)CC3)c(F)c2)C(=O)O1 (stereo not drawn) .
## Output 159 to 161 °C

## Input If you can, please state the reported melting point value of OCc1c(F)cccc1NC1CCN(Cc2ccccc2)CC1 .
## Output 167 to 170 °C

## Input Field request: melting point | item: CSc1ccc(C2=C(c3ccc(F)cc3)CCC2)cc1
## Output 46 to 47 °C

## Input Reported melting point for CC(C)(C)OC(=O)NCCCCC(=O)Nc1cccc(C(=O)O)c1 : what is it?
## Output 188 °C

## Input Record request: melting point value, item O=C1CC(c2ccccc2OCc2ccccc2)=Nc2ccc(N3CCOCC3)cc21
## Output 281 to 283 °C

## Input Returns the measured melting point for the input molecule. Input: CC(C(=O)O)C1CCC(C)(CCC2(C)C(C)CCC3(C)C(C)(C)CCCC23O)OO1 (stereo not drawn)
## Output 157 to 159 °C

## Input Given the molecule CCOC(=O)Nc1nc(C(=O)C(=O)OC)ns1 , what is its reported melting point?
## Output 170 to 174 °C

## Input What value of measured melting point is listed for Cc1cc([N+](=O)[O-])c(O)cc1Cl ?
## Output 70 to 71 °C

## Input // query melting point value for entry Clc1ccc2[nH]c(-c3ccccc3)c(CCN3CCCCC3)c2c1
## Output 153 to 154 °C

## Input I am curious: what melting point value has been reported for NC(=O)C(O)C1CC=CCC1 (stereo not drawn) ?
## Output 139 to 141 °C

## Input Please give the measured melting point for this molecule: COc1cc(Nc2nccc(-c3ccccn3)n2)cc(OC)c1OC
## Output 185 °C

## Input Param item = CC(C)(C)c1cc2c(n1-c1ccc(O)c(C(=O)O)c1)CCc1ccccc1-2 ; retrieve measured melting point.
## Output 258 to 260 °C

## Input Fill in the blank: the reported melting point of COC(=O)c1ccc([N+](=O)[O-])[nH]1 is ____.
## Output 178 to 179 °C
